The reported measurements were obtained from patent US8927717B1.

- Test system: NCI-H226
- Format: cell-based
- Measurement Context: Non-small cell lung cancer; 10^−5 molar; 48 hours; SRB
The entries below come with measured Growth percent NCI-H226 values attached.
Readout: Growth percent NCI-H226 (%)

• O=c1c2cc(Cl)ccc2sc2c(NCCO)nc3ccccc3c12 [Compound N9] = 83.55
• CN(C)CCNc1nc2ccccc2c2c(=O)c3cc(Cl)ccc3sc12 [Compound N7] = 58.08
• CCC(CC)Nc1nc2ccccc2c2c(=O)c3cc(Cl)ccc3sc12 [Compound N6] = 79.22
• CNc1nc2ccccc2c2c(=O)c3cc(Cl)ccc3sc12 [Compound N1] = 73.53
• NCCNc1nc2ccccc2c2c(=O)c3cc(Cl)ccc3sc12 [Compound N14] = 28.55
• O=c1c2cc(Cl)ccc2sc2c(N3CCN(Cc4ccccc4)CC3)nc3ccccc3c12 [Compound 11] = 88.98
• CCNc1nc2ccccc2c2c(=O)c3cc(Cl)ccc3sc12 [Compound N2] = 41.31
• CC(C)CC(C)Nc1nc2ccccc2c2c(=O)c3cc(Cl)ccc3sc12 (stereo not shown) [Compound N13] = 87.55
• CCC(CO)Nc1nc2ccccc2c2c(=O)c3cc(Cl)ccc3sc12 (stereo not shown) [Compound N12] = 77.56
• O=c1c2ccc(Cl)cc2sc2c(Cl)nc3ccccc3c12 [Compound 3] = 83.41

---

- Tested on: SF-268
- Format: cell-based
- Measurement Context: SF-268; 10^−5 molar
The entries below come with measured Growth percent values attached.
Readout: Growth percent (%)

* CN(C)CCCNc1nc2ccccc2c2c(=O)c3cc(Cl)ccc3sc12 | 87.67
* O=c1c2cc(Cl)ccc2sc2c(NCCN3CCOCC3)nc3ccccc3c12 | 79.49
* O=c1c2cc(Cl)ccc2sc2c(NCCCNCCO)nc3ccccc3c12 | 17.28
* O=c1c2cc(Cl)ccc2sc2c(NCCc3ccccc3)nc3ccccc3c12 | 101.32
* O=c1c2cc(Cl)ccc2sc2c(NCc3ccccc3)nc3ccccc3c12 | 73.68
* O=c1c2cc(Cl)ccc2sc2c(NCc3ccc4c(c3)OCO4)nc3ccccc3c12 | 93.24
* O=c1c2cc(Cl)ccc2sc2c(NC3CCCCC3)nc3ccccc3c12 | 92.06
* COc1ccc(CCNc2nc3ccccc3c3c(=O)c4cc(Cl)ccc4sc23)cc1 | 100.14

---

- Tested on: BT-549
- Assay type: cell-based
- Measurement Context: Breast cancer; 10^−5 molar; 48 hours; SRB
Readout: Growth percent BT-549

* CC(C)CC(C)Nc1nc2ccccc2c2c(=O)c3cc(Cl)ccc3sc12 (stereo not shown) | 103.61%
* O=c1c2cc(Cl)ccc2sc2c(NCCO)nc3ccccc3c12 | 131.62%
* CN(C)CCNc1nc2ccccc2c2c(=O)c3cc(Cl)ccc3sc12 | 91.29%
* CCC(CC)Nc1nc2ccccc2c2c(=O)c3cc(Cl)ccc3sc12 | 109.76%
* CNc1nc2ccccc2c2c(=O)c3cc(Cl)ccc3sc12 | 108.49%
* O=c1c2ccc(Cl)cc2sc2c(Cl)nc3ccccc3c12 | 110.01%
* NCCNc1nc2ccccc2c2c(=O)c3cc(Cl)ccc3sc12 | 78.49%
* CCNc1nc2ccccc2c2c(=O)c3cc(Cl)ccc3sc12 | 100.10%
* CCC(CO)Nc1nc2ccccc2c2c(=O)c3cc(Cl)ccc3sc12 (stereo not shown) | 85.96%
* O=c1c2cc(Cl)ccc2sc2c(N3CCN(Cc4ccccc4)CC3)nc3ccccc3c12 | 114.05%

---

The entries below come with measured Growth percent values attached.
- Tested on: HL-60(TB)
- Format: cell-based
- Measurement Context: HL-60(TB); 10^−5 molar
Readout: Growth percent (%)

* O=c1c2cc(Cl)ccc2sc2c(NC3CCCCC3)nc3ccccc3c12 | 107.06
* O=c1c2cc(Cl)ccc2sc2c(NCc3ccc4c(c3)OCO4)nc3ccccc3c12 | 112.12
* CN(C)CCCNc1nc2ccccc2c2c(=O)c3cc(Cl)ccc3sc12 | 77.32
* O=c1c2cc(Cl)ccc2sc2c(NCc3ccccc3)nc3ccccc3c12 | 98.82
* O=c1c2cc(Cl)ccc2sc2c(NCCc3ccccc3)nc3ccccc3c12 | 105.68
* COc1ccc(CCNc2nc3ccccc3c3c(=O)c4cc(Cl)ccc4sc23)cc1 | 94.27
* O=c1c2cc(Cl)ccc2sc2c(NCCCNCCO)nc3ccccc3c12 | −37.88
* O=c1c2cc(Cl)ccc2sc2c(NCCN3CCOCC3)nc3ccccc3c12 | 104.97

---

The entries below come with measured Growth percent A498 values attached.
- Tested on: A498
- Type: cell-based
- Measurement Context: Renal cancer; 10^−5 molar; 48 hours; SRB
Readout: Growth percent A498 (%)

* CCNc1nc2ccccc2c2c(=O)c3cc(Cl)ccc3sc12 | 61.02
* NCCNc1nc2ccccc2c2c(=O)c3cc(Cl)ccc3sc12 | 60.29
* O=c1c2cc(Cl)ccc2sc2c(NCCO)nc3ccccc3c12 | 65.78
* CC(C)CC(C)Nc1nc2ccccc2c2c(=O)c3cc(Cl)ccc3sc12 (stereo not shown) | 75.01
* CCC(CO)Nc1nc2ccccc2c2c(=O)c3cc(Cl)ccc3sc12 (stereo not shown) | 74.62
* O=c1c2ccc(Cl)cc2sc2c(Cl)nc3ccccc3c12 | 106.06
* CN(C)CCNc1nc2ccccc2c2c(=O)c3cc(Cl)ccc3sc12 | 43.17
* CNc1nc2ccccc2c2c(=O)c3cc(Cl)ccc3sc12 | 82.89
* CCC(CC)Nc1nc2ccccc2c2c(=O)c3cc(Cl)ccc3sc12 | 103.44
* O=c1c2cc(Cl)ccc2sc2c(N3CCN(Cc4ccccc4)CC3)nc3ccccc3c12 | 94.17

---

Entries with reported GI50 on OVCAR-5
Readout: GI50 (nM)

* O=c1c2cc(Cl)ccc2sc2c(NCCCNCCO)nc3ccccc3c12 | 1630
* NCCNc1nc2ccccc2c2c(=O)c3cc(Cl)ccc3sc12 | 1460
* CN(C)CCNc1nc2ccccc2c2c(=O)c3cc(Cl)ccc3sc12 | 1450

---

- Test system: SF-539
- Assay type: cell-based
- Measurement Context: CNS cancer; 10^−5 molar; 48 hours; SRB
The entries below come with measured Growth percent SF-539 values attached.
Readout: Growth percent SF-539 (%)

- CN(C)CCNc1nc2ccccc2c2c(=O)c3cc(Cl)ccc3sc12: 48.73
- O=c1c2cc(Cl)ccc2sc2c(N3CCN(Cc4ccccc4)CC3)nc3ccccc3c12: 108.56
- CNc1nc2ccccc2c2c(=O)c3cc(Cl)ccc3sc12: 59.86
- CCNc1nc2ccccc2c2c(=O)c3cc(Cl)ccc3sc12: 60.35
- CCC(CC)Nc1nc2ccccc2c2c(=O)c3cc(Cl)ccc3sc12: 95.09
- O=c1c2cc(Cl)ccc2sc2c(NCCO)nc3ccccc3c12: 90.56
- NCCNc1nc2ccccc2c2c(=O)c3cc(Cl)ccc3sc12: 2.13
- CCC(CO)Nc1nc2ccccc2c2c(=O)c3cc(Cl)ccc3sc12 (stereo not drawn): 83.86
- O=c1c2ccc(Cl)cc2sc2c(Cl)nc3ccccc3c12: 89.02

---

- Tested on: SW-620
The entries below come with measured GI50 values attached.
Readout: GI50 (nM)

- NCCNc1nc2ccccc2c2c(=O)c3cc(Cl)ccc3sc12: 1670
- O=c1c2cc(Cl)ccc2sc2c(NCCCNCCO)nc3ccccc3c12: 1630
- CN(C)CCNc1nc2ccccc2c2c(=O)c3cc(Cl)ccc3sc12: 1710

---

Entries with reported IC50 on TOP II (Topoisomerase II) (Homo sapiens)
Sequence (P11388 whole entry): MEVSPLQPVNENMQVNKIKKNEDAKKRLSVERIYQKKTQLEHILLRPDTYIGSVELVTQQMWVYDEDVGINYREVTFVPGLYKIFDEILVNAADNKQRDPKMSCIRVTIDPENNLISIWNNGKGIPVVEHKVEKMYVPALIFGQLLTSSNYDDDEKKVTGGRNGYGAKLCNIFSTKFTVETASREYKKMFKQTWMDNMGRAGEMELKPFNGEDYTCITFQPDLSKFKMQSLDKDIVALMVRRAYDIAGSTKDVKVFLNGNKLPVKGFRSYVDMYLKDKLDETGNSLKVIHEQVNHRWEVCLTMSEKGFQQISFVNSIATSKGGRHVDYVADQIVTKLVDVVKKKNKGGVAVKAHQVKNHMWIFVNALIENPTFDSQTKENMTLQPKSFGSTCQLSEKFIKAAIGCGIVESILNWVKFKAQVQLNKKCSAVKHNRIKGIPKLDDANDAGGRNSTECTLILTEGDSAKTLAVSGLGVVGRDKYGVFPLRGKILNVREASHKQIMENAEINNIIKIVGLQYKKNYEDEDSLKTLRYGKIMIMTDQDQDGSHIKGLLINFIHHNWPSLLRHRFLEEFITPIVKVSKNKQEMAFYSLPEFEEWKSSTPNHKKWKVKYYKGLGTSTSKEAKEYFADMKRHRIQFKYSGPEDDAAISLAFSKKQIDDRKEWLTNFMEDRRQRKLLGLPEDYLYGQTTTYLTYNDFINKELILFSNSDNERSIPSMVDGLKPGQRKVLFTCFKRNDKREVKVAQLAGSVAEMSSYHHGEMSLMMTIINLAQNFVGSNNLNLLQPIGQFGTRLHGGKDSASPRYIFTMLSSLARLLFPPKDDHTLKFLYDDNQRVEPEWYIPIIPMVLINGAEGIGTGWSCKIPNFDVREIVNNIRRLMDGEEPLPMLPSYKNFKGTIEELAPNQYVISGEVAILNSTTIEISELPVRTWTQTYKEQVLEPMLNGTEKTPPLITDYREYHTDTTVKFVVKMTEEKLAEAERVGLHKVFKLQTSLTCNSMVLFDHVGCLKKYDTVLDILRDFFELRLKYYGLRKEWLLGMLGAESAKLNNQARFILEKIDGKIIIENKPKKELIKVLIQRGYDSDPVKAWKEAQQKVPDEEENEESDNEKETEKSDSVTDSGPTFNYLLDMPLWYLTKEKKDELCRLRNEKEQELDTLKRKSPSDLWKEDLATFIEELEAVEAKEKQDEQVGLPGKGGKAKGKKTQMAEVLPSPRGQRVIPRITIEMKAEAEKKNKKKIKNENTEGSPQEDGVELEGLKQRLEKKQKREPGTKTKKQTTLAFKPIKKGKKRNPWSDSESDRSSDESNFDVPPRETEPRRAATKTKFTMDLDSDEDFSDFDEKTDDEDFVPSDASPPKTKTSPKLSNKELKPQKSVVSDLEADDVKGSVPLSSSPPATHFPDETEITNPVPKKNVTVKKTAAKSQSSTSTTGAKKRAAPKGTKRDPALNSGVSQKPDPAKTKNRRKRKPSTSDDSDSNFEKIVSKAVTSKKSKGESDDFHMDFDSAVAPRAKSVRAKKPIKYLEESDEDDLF
Readout: IC50

- O=c1c2cc(Cl)ccc2sc2c(N3CCNCC3)nc3ccccc3c12: ~10 µM
- O=c1c2cc(Cl)ccc2sc2c(NCCCNCCO)nc3ccccc3c12: ~1 µM
- CN(C)CCNc1nc2ccccc2c2c(=O)c3cc(Cl)ccc3sc12: ~10 µM
- NCCNc1nc2ccccc2c2c(=O)c3cc(Cl)ccc3sc12: ~10 µM

---

- Test system: OVCAR-4
- Assay type: cell-based
- Measurement Context: Homo sapiens; OVCAR-4; five dose
Readout: GI50 (nM)

• CN(C)CCNc1nc2ccccc2c2c(=O)c3cc(Cl)ccc3sc12 [Compound N7] = 1190
• NCCNc1nc2ccccc2c2c(=O)c3cc(Cl)ccc3sc12 [Compound N14] = 1520
• O=c1c2cc(Cl)ccc2sc2c(NCc3ccccc3)nc3ccccc3c12 [Compound N25] = 15000
• O=c1c2cc(Cl)ccc2sc2c(NCCCNCCO)nc3ccccc3c12 [Compound N19] = 1600

---

- Tested on: MDA-MB-435
Readout: GI50 (µM)

* NCCNc1nc2ccccc2c2c(=O)c3cc(Cl)ccc3sc12 | 1.82
* O=c1c2cc(Cl)ccc2sc2c(NCCCNCCO)nc3ccccc3c12 | 1.59
* CN(C)CCNc1nc2ccccc2c2c(=O)c3cc(Cl)ccc3sc12 | 1.71
